Molecular target: T1, Mouse ST2 (mouse, UniProt P14719 27-332, limits assumed)
T1 construct: also called mouse ST2 protein
T1 sequence (looked up): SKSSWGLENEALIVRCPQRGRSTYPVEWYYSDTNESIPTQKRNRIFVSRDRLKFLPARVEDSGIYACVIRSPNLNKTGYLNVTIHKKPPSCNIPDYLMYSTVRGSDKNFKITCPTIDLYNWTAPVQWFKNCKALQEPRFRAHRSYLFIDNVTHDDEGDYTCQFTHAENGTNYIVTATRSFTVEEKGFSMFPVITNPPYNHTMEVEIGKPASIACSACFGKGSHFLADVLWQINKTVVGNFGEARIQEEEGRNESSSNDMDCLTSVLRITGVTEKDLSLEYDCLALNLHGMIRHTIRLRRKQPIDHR
Test: SPR (Carterra), antibody immobilized, ST2 analyte, 1:1
So I've got a bunch of binders here, and I need their koff values.

Please give measured koff of the following entry: Human ST2 IgG1 Antibody 20 (antibody, V domains shown, IgG1, kappa; also called ST2 Antibody 20) VH: EVQLLESGAEVKKPGSSVKVSCKASGGTFSSYAISWVRQAPGQGLEWMGGIIPIFGTANYAQKFQGRVTITADESTSTAYMELSSLRSEDTAVYYCASGFYSNDLYYYYYMDVWGKGTTVTVSS VL: DIQMTQSPSSLSASVGDRVTITCRASQSISSWLAWYQQKPGKAPKLLIYDASNLKTGVPSRFSGSGSGTDFTLTISSLQPEDFATYYCQQTYAIPLTFGGGTKVEIKR 0.17 s⁻¹

Please give measured koff of the following entry: Human ST2 IgG1 Antibody 98 (antibody, V domains shown, IgG1, kappa; also called ST2 Antibody 98) VH: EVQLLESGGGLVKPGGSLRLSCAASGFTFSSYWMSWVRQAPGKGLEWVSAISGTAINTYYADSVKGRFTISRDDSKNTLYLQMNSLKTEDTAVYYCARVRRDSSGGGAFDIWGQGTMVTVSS VL: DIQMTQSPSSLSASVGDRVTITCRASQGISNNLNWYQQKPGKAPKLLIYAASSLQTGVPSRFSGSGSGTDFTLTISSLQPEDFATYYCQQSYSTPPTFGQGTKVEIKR 0.12 s⁻¹

Please give measured koff of the following entry: Human ST2 IgG1 Antibody 99 (antibody, V domains shown, IgG1, kappa; also called ST2 Antibody 99) VH: EVQLLESGGGLVQPGGSLRLSCAASGFTFSDYYMNWVRQAPGKGLEWVSTISGFGESTFYADSVKGRFTISRDNSKNTLYLQMNSLRAEDTAVYYCARLGAARAFDIWGQGTTVTVSS VL: DIQMTQSPSSLSASVGDRVTITCRASQSIGSWMAWYQQKPGKAPKLLIYAASTLQSGVPSRFSGSGSGTDFTLTISSLQPEDFATYYCQQSYTTPITFGPGTKVDIKR 0.098 s⁻¹
